Recorded IC50, one value per entry.
Target: Notum (core, 81–451C330S) (Homo sapiens, UniProt Q6P988, C330S)
Construct: high-throughput biochemical assay with Notum (81–451C330S) and OPTS as a synthetic fluorescent substrate; made in house
Sequence (Q6P988 81-451 C330S): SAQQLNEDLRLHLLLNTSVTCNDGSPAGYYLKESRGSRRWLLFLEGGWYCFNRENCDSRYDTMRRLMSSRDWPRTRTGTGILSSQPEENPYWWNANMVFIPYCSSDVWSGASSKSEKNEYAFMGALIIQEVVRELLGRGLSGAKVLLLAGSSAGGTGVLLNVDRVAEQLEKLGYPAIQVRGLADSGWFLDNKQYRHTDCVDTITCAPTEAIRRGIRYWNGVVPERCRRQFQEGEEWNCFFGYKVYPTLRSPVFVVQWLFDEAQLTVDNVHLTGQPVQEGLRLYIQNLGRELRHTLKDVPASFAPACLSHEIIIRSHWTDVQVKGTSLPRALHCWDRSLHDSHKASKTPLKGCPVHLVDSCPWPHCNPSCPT
Assay: Notum-OPTS biochemical assay, Notum (81–451C330S)
Details: Table 1; mean ± s.d. of n = 2–6; inactive = <20% inhibition @ 10 μM; >10 = 20–50% inhibition @ 10 μM; 2a covalent, IC50 time-dependant; read-out: Notum IC50
Reported endpoint: IC50 (µM)

• CC(=O)N1CCOc2ccccc21 [Compound 3m] = 2.8
• CC(=O)N1CCc2ccccc21 [Compound 3a, 1-(Indolin-1-yl)ethan-1-one] = 0.4
• CC(=O)n1ccc2ccccc21 [Compound 3b, 1-(1H-Indol-1-yl)ethan-1-one] = 5.3
• CC(=O)N1C(=O)Cc2ccccc21 [Compound 3j, 1-Acetylindolin-2-one] = 3.2
• CC(=O)N1Cc2ccccc2C1 [Compound 3d, 1-(Isoindolin-2-yl)ethan-1-one] = 2.2
• CC(=O)N1CCCc2ccccc21 [Compound 3c] = 2.5
• CC(=O)N1CCSc2ccccc21 [Compound 3n] = 3.6
• CC(=O)N1CCc2ccccc2C1 [Compound 3e] = 8
• CC(=O)N1CC(=O)c2ccccc21 [Compound 3i, 1-Acetylindolin-3-one] = 0.69
